Data provenance is ChEMBL document CHEMBL4130462.

Test system: Mycobacterium avium
test.context: isolate MAV4
Reported values of MIC for individual entries
Quick note: give the figure in µg/mL, leave out the unit.

molecule	MIC, µg/mL
CSc1ccc2c(c1)N(CCC1CCCCN1C)c1ccccc1S2 (stereo not given)	8

Just so you know, measured MIC for CCCOc1ccc(-c2cn(CCN(CC)CC)c3ccccc3c2=O)cc1 came out at 8

Reported MIC for CN(C)CCCN1c2ccccc2Sc2ccc(Cl)cc21 was 4

Form: molecule = CCCOc1ccc(-c2cn(CCN3CCCCC3)c3ccccc3c2=O)cc1 ; MIC = 2

// recorded MIC for CCCOc1ccc(-c2cn(CCN3CCCCCC3)c3ccccc3c2=O)cc1 : 2
